Listed next: entries and their corresponding log10(TGI).
- Tested on: RXF 393 renal
- experimental.protocol: NCI tumour cell line growth inhibition, 48 h
measure.name: log10(TGI) (log10 of the value in µM)

molecule: CSc1ccc2c3c(n(C[C@H](O)CO)c(=O)c2c1)-c1ccccc1C3=O
log10(TGI): 1.37
//
molecule: O=C(N/N=C/c1ccc([N+](=O)[O-])cc1)c1ccc2nc(-c3ccc(Cl)cc3)[nH]c2c1
log10(TGI): 0.85
//
molecule: NC1=NC(c2ccc(Cl)cc2)C2=C(N1)/C(=C/c1ccc(Cl)cc1)CCC2 (stereo not given)
log10(TGI): 0.65
//
molecule: COc1ccc(C(=O)c2cc3c(OC)c(OC)c(OC)cc3[nH]2)cc1
log10(TGI): 1.98
//
molecule: COc1cc(/C=C2\CN(C)C/C(=C\c3cc(CN4CCCCC4)c(O)c(OC)c3)C2=O)cc(CN2CCCCC2)c1O
log10(TGI): 0.84
//
molecule: O=c1[nH]nc(-c2ccccc2)n1/N=C/c1c(O)ccc2ccccc12
log10(TGI): 1.93
//
molecule: Cc1ccnc2[nH]c(-c3ccccc3)cc(=O)c12
log10(TGI): -1.74
//
molecule: Cc1cc(-c2nc3ccccc3s2)ccc1NC(=O)[C@H](C)N
log10(TGI): 1.40
//
molecule: CCc1ccc2[nH]c(O)c(-c3[nH]c4ccccc4c3N=O)c2c1
log10(TGI): 1.05
